Data provenance is paper PMC3351444.

target: human CMKLR1 (Homo sapiens, UniProt Q99788); construct: host or cells: HEK293A (Invitrogen), stably expressing human Gα15; experiment: Ca2+ mobilization (CellLux imaging) agonist assay in HEK293A cells expressing CMKLR1 and Gα15; type: cell-based; conditions: Ca2+ mobilization, CMKLR1; decimal comma; NR where no EC50 is given; read-out: EC50
Sequence (Q99788 whole entry): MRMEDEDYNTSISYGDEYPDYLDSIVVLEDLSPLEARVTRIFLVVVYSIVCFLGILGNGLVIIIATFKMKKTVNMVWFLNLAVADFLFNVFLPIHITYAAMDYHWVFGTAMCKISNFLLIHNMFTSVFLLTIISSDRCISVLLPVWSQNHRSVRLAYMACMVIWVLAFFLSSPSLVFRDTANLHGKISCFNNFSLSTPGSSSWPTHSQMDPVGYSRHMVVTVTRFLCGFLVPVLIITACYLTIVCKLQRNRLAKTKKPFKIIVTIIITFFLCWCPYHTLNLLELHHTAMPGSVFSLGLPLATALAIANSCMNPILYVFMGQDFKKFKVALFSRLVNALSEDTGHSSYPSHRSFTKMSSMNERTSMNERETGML
pEC50: −log10 of the molar value. Square brackets hold non-standard residues; d marks the D form. Peptide text beside a SMILES is read from it.
Listed below: pEC50 values for each entry.
Value kind: pEC50

1) C[C@H](NC(=O)[C@H](Cc1ccccc1)NC(=O)[C@H](C)NC(=O)[C@H](Cc1ccc(O)cc1)NC(=O)[C@H](C)NC(=O)[C@H](Cc1ccccc1)NC(=O)[C@@H](CO)NC(=O)[C@H](Cc1ccccc1)NC(=O)[C@@H](N)CCC(N)=O)C(=O)O [compound 102] (H-QF[dS]FAYAFA-OH; N-terminus assumed) :: 6.85
2) C[C@H](NC(=O)[C@@H](N)Cc1ccc(O)cc1)C(=O)N[C@@H](Cc1ccccc1)C(=O)N[C@H](CO)C(=O)N1CCC[C@H]1C(=O)NCC(=O)N[C@@H](CCC(N)=O)C(=O)N[C@@H](Cc1ccccc1)C(=O)N[C@H](CO)C(=O)O [compound 93] (H-YAF[dS]PGQF[dS]-OH; N-terminus assumed) :: 7.19
3) CC(C)C[C@H](NC(=O)[C@@H](N)Cc1ccc(O)cc1)C(=O)N1CCC[C@H]1C(=O)N1CCC[C@@H]1C(=O)N1CCC[C@H]1C(=O)N[C@@H](Cc1ccc(O)cc1)C(=O)N[C@@H](C)C(=O)N[C@@H](Cc1ccccc1)C(=O)N[C@H](Cc1ccccc1)C(=O)O [compound 130] (H-YLP[dP]PYAF[dF]-OH; N-terminus assumed) :: 7.36
4) CC(C)C[C@H](NC(=O)[C@@H](N)Cc1ccccc1)C(=O)N1CCC[C@H]1C(=O)NCC(=O)N[C@@H](CCC(N)=O)C(=O)N[C@@H](Cc1ccccc1)C(=O)N[C@@H](C)C(=O)N[C@@H](Cc1ccccc1)C(=O)N1CCC[C@@H]1C(=O)O [compound 110] (H-FLPGQFAF[dP]-OH; N-terminus assumed) :: 5.75
